Endpoint: Ki. System: human dopamine receptor subtype hD2long (Homo sapiens, UniProt P14416). Items follow.
Sequence (P14416 whole entry): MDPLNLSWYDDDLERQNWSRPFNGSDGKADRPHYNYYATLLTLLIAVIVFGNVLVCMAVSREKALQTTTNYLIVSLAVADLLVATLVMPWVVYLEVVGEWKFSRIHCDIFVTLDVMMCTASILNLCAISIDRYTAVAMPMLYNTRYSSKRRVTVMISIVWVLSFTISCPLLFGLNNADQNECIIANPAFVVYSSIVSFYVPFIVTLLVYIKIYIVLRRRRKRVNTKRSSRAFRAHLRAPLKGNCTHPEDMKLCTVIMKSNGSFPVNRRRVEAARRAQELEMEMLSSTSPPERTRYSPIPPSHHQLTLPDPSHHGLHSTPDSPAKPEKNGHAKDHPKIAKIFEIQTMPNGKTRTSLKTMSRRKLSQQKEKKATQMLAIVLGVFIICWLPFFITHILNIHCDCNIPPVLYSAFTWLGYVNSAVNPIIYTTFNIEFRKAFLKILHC
Give the value in nM but do not write nM after it.

Example entries and their recorded answers appear below.
>>> experimental_result("CCCN(CCc1ccccc1)C1CCc2cccc(O)c2C1 (stereo not shown)")
760
>>> experimental_result("CCCN(CCc1ccc(OC)cc1)C1CCc2cccc(OC)c2C1 (stereo not shown)")
340
>>> experimental_result("CCCN(CCc1cccs1)[C@H]1CCc2cccc(O)c2C1")
520

Write down the reported Ki of CCCN(CCc1cc2ccc1CCc1ccc(cc1)CC2)C1CCc2cccc(O)c2C1 (stereo not shown) , test system: human dopamine receptor subtype hD2long (Homo sapiens, UniProt P14416).
990

Write down the reported Ki of CCCN(CCc1cc2ccc1CCc1ccc(cc1)CC2)C1CCc2cccc(OC)c2C1 (stereo not shown) , test system: human dopamine receptor subtype hD2long (Homo sapiens, UniProt P14416).
48

Write down the reported Ki of CCCN(CCc1cc(C)ccc1C)C1CCc2cccc(O)c2C1 (stereo not shown) , test system: human dopamine receptor subtype hD2long (Homo sapiens, UniProt P14416).
140

Write down the reported Ki of CCCN(CCc1cc(C)ccc1C)C1CCc2cccc(OC)c2C1 (stereo not shown) , test system: human dopamine receptor subtype hD2long (Homo sapiens, UniProt P14416).
300

Write down the reported Ki of CCCN(CCc1ccc(O)cc1)C1CCc2cccc(O)c2C1 (stereo not shown) , test system: human dopamine receptor subtype hD2long (Homo sapiens, UniProt P14416).
340

Write down the reported Ki of `CCCN(CCc1cccs1)[C@@H]1CCc2cccc(O)c2C1` , test system: human dopamine receptor subtype hD2long (Homo sapiens, UniProt P14416).
240

Write down the reported Ki of CCCN(CCc1cccs1)C1CCc2cccc(O)c2C1 (stereo not shown) , test system: human dopamine receptor subtype hD2long (Homo sapiens, UniProt P14416).
260
